Tested on: murine splenocyte
Test: murine splenocyte assay for immunosuppressive activity
Assay type: cell-based
Details: mouse splenocyte assay, methods of Example 2.5; read-out: Splenocyte IC50
Description: 3. Conventional murine splenocyte assay for immunosuppressive activity. A diverse group of C7-modified 28-epirapalogs were prepared as described in Example 4.
Reported IC50 values follow for various compounds
quantity-name: IC50 (nM)

compound	result-unit	measured
CO[C@@H]1C[C@H](C[C@@H](C)[C@@H]2CC(=O)[C@H](C)/C=C(\C)[C@H](O)[C@@H](OC)C(=O)[C@H](C)C[C@H](C)/C=C/C=C/C=C(\C)[C@H](N(C)C(=O)Oc3ccc(C)cc3)C[C@@H]3CC[C@@H](C)[C@@](O)(O3)C(=O)C(=O)N3CCCC[C@H]3C(=O)O2)CC[C@H]1O [28-epi-7R-N-Me-p-tolylcarbamate]	nM	393
CCOC(=O)N(C)C1CC2CCC(C)C(O)(O2)C(=O)C(=O)N2CCCCC2C(=O)OC(C(C)CC2CCC(O)C(OC)C2)CC(=O)C(C)C=C(C)C(O)C(OC)C(=O)C(C)CC(C)C=CC=CC=C1C (single isomer, unassigned) [28-epi-7R-N-methyl-ethylcarbamate]	nM	255
COC1CC(CC(C)C2CC(=O)C(C)C=C(C)C(O)C(OC)C(=O)C(C)CC(C)C=CC=CC=C(C)C(NS(=O)(=O)N(C)C)CC3CCC(C)C(O)(O3)C(=O)C(=O)N3CCCCC3C(=O)O2)CCC1O (stereo not drawn) [28-epi-7S-dimethylsulfamide]	nM	879
COC1CC(CC(C)C2CC(=O)C(C)C=C(C)C(O)C(OC)C(=O)C(C)CC(C)C=CC=CC=C(C)C(N(C)C(=O)OCC(C)C)CC3CCC(C)C(O)(O3)C(=O)C(=O)N3CCCCC3C(=O)O2)CCC1O (single isomer, unassigned) [28-epi-7S-N-Me-isobutylcarbamate]	nM	1380

====

Target: FKBP (Homo sapiens)
Sequence (P62942 whole entry): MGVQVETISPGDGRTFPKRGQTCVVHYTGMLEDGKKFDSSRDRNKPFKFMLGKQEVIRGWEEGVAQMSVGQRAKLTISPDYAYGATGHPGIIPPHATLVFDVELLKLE
Assay: FKBP competitive binding assay based on fluorescence polarization (FP)
Settings: competitive FP binding, methods of Example 2.5; read-out: FKBP IC50
pIC50: −log10 of the molar value.
Reported pIC50 values follow for various compounds

compound	target-desc	pIC50
CO[C@@H]1C[C@H](C[C@@H](C)[C@@H]2CC(=O)[C@H](C)/C=C(\C)[C@H](O)[C@@H](OC)C(=O)[C@H](C)C[C@H](C)/C=C/C=C/C=C(\C)[C@@H](N(C)C(=O)Oc3ccc(C)cc3)C[C@@H]3CC[C@@H](C)[C@@](O)(O3)C(=O)C(=O)N3CCCC[C@H]3C(=O)O2)CC[C@H]1O [28-epi-7S-N-Me-p-tolylcarbamate]	FKBP (Homo sapiens)	7.27
CCCS(=O)(=O)N(C)C1CC2CCC(C)C(O)(O2)C(=O)C(=O)N2CCCCC2C(=O)OC(C(C)CC2CCC(O)C(OC)C2)CC(=O)C(C)C=C(C)C(O)C(OC)C(=O)C(C)CC(C)C=CC=CC=C1C (single isomer, unassigned) [28-epi-7S-N-Me-propanesulfonamide]	FKBP (Homo sapiens)	7.72
COC1CC(CC(C)C2CC(=O)C(C)C=C(C)C(O)C(OC)C(=O)C(C)CC(C)C=CC=CC=C(C)C(NC(=O)Oc3ccccc3)CC3CCC(C)C(O)(O3)C(=O)C(=O)N3CCCCC3C(=O)O2)CCC1O (stereo not drawn) [28-epi-7R-phenylcarbamate]	FKBP (Homo sapiens)	8.05
CO[C@@H]1C[C@H](C[C@@H](C)[C@@H]2CC(=O)[C@H](C)/C=C(\C)[C@H](O)[C@@H](OC)C(=O)[C@H](C)C[C@H](C)/C=C/C=C/C=C(\C)[C@H](N(C)C(=O)OCc3ccccc3)C[C@@H]3CC[C@@H](C)[C@@](O)(O3)C(=O)C(=O)N3CCCC[C@H]3C(=O)O2)CC[C@H]1O [28-epi-7R-N-Me-benzylcarbamate]	FKBP (Homo sapiens)	6.79
